Here the recorded Tumor Volume (mm^3) is given for each entry.
Test system: MNU-induced breast cancer
Experiment: In vivo anticancer screening, MNU-induced mammary tumorigenesis
Parameters: species or system female Wistar rats
Conditions: dose 5 mg/kg per os after MNU

1. O=C(c1ccc(OCCN2CCCCC2)cc1)c1c(-c2ccc(O)cc2)sc2cc(O)ccc12 [Ral., Raloxifene, reference compound]
1.67 ± 0.31 *^,†,‡ mm^3
2. CC/C(=C(\c1ccc(O)cc1)c1ccc(OCCN(C)C)cc1)c1ccccc1 [Compound 4-OHT., 4-hydroxytamoxifen, reference compound]
1.88 ± 0.35 *^,†,‖ mm^3
3. CC(=O)c1cc(C(=O)OC2/C=C/C(=O)O[C@@H](O)CCC/C=C/[C@@H]3C[C@H](O)C[C@@H]23)ccc1OCCN1CCC=C(C(=O)O)C1 (some centres unmarked)
0.78 ± 0.43 *^,†,‡,‖ mm^3
4. CC(=O)c1cc(C(=O)O[C@@H]2/C=C/C(=O)O[C@@H](O)CCC/C=C/[C@@H]3C[C@H](O)C[C@H]32)ccc1OCCN1CC(C(=O)O)=CCC1=O
0.77 ± 0.32 *^,†,‡,‖ mm^3

In: Tell me reported Tumor Volume (mm^3) for `CC(=O)c1cc(C(=O)O[C@@H]2/C=C/C(=O)O[C@@H](O)CCC/C=C/[C@@H]3C[C@H](O)C[C@H]32)ccc1OCCN(C)C` , tested with MNU-induced breast cancer.
Out: 0.96 ± 0.41 *^,†,‡,‖ mm^3

In: Try `CC(=O)c1cc(C(=O)O[C@@H]2/C=C/C(=O)O[C@@H](O)CCC/C=C/[C@@H]3C[C@H](O)C[C@H]32)ccc1OCCS(=O)(=O)O` next.
Out: 0.98 ± 0.31 *^,†,‡,‖ mm^3

In: Also `CNCCOc1ccc(C(=O)O[C@@H]2/C=C/C(=O)O[C@@H](O)CCC/C=C/[C@@H]3C[C@H](O)C[C@H]32)cc1C(C)=O` , if possible.
Out: 1.09 ± 0.23 *^,†,‡,‖ mm^3

In: // query: CC(=O)c1cc(C(=O)O[C@@H]2/C=C/C(=O)O[C@@H](O)CCC/C=C/[C@@H]3C[C@H](O)C[C@H]32)ccc1OCCN1CCCC(O)C1=O (some centres unmarked)
Out: 0.67 ± 0.22 *^,†,‡,‖ mm^3

* * *

Target: ERα (Homo sapiens)
Sequence (P03372 whole entry): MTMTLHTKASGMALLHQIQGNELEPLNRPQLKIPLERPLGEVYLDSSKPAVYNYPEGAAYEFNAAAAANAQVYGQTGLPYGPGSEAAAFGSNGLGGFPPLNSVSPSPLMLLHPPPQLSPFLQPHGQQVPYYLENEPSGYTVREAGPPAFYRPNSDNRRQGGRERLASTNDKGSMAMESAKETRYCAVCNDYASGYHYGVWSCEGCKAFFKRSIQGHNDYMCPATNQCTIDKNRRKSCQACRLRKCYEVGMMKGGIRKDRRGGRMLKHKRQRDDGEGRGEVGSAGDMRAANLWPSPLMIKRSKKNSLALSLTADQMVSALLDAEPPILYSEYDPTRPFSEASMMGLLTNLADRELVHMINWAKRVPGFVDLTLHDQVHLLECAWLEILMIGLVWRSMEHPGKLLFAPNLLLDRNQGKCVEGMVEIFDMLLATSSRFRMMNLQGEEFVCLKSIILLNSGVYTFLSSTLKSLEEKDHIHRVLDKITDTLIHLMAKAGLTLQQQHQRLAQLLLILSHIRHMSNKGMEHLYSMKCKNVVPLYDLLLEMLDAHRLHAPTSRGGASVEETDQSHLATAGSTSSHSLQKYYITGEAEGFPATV
Experiment: Fluorescence polarization competition assay: antagonistic potency and relative binding affinity
Conditions: concentration that antagonizes 50% of ERα signaling activity; read-out: ERα (IC50 nM)
Binary call on IC50 with cut-off 0.6 nM: strictly below means rule met, and equality or higher means rule not met.

Look over these answered cases.
1) CC(=O)c1cc(C(=O)O[C@@H]2/C=C/C(=O)O[C@@H](O)CCC/C=C/[C@@H]3C[C@H](O)C[C@H]32)ccc1OCCN(C)C [Compound 3DPQ-2]
rule met
2) CC(=O)c1cc(C(=O)O[C@@H]2/C=C/C(=O)O[C@@H](O)CCC/C=C/[C@@H]3C[C@H](O)C[C@H]32)ccc1OCCN1CCCC(O)C1=O (some centres unmarked) [Compound 3DPQ-12]
rule met
3) CC(=O)c1cc(C(=O)OC2C=CC(=O)OC(O)CCCC=CC3CC(O)CC32)ccc1OCCN1C(=O)CCC1=O (centres unmarked) [Compound 3DPQ-5]
rule not met
4) CC(=O)c1cc(C(=O)O[C@@H]2/C=C/C(=O)O[C@@H](O)CCC/C=C/[C@@H]3C[C@H](O)C[C@H]32)ccc1OCCN1CC(C(=O)O)=CCC1=O [Compound 3DPQ-9]
rule met
5) CC(=O)c1cc(C(=O)O[C@@H]2/C=C/C(=O)O[C@@H](O)CCC/C=C/[C@@H]3C[C@H](O)C[C@H]32)ccc1OCCN1CCCC2CCCNC21 (some centres unmarked) [Compound 3DPQ-8]
rule not met
6) CC(=O)c1cc(C(=O)OC2/C=C/C(=O)O[C@@H](O)CCC/C=C/[C@@H]3C[C@H](O)C[C@@H]23)ccc1OCCN1CCC=C(C(=O)O)C1 (some centres unmarked) [Compound 3DPQ-3]
rule met
7) CC(=O)c1cc(C(=O)O[C@@H]2/C=C/C(=O)O[C@@H](O)CCC/C=C/[C@@H]3C[C@H](O)C[C@H]32)ccc1OCCN1C=Cc2ccccc2C1 [Compound 3DPQ-7]
rule not met

Please turn your attention to the following entry.
In: In the record for CNCCOc1ccc(C(=O)O[C@@H]2/C=C/C(=O)O[C@@H](O)CCC/C=C/[C@@H]3C[C@H](O)C[C@H]32)cc1C(C)=O [Compound 3DPQ-1] , is IC50 less than 0.6 nM?
Out: rule met

* * *

Assay: Liver oxidative stress markers after treatment of MNU-induced rats
Assay type: in vivo, Wistar rats
Details: total protein content, liver, dose 50 mg/kg
READOUT_LABEL: TP (g/L)
Write the answer as a number in g/L, unit excluded.

As a guide, the following entries are already answered.
1) CNCCOc1ccc(C(=O)O[C@@H]2/C=C/C(=O)O[C@@H](O)CCC/C=C/[C@@H]3C[C@H](O)C[C@H]32)cc1C(C)=O [Compound 3DPQ-1]
37.21
2) CC(=O)c1cc(C(=O)O[C@@H]2/C=C/C(=O)O[C@@H](O)CCC/C=C/[C@@H]3C[C@H](O)C[C@H]32)ccc1OCCN1CC(C(=O)O)=CCC1=O [Compound 3DPQ-9]
39.43

// switching to the query compound
In: Dear colleague, I am looking for the recorded TP of the following compound: CC(=O)c1cc(C(=O)O[C@@H]2/C=C/C(=O)O[C@@H](O)CCC/C=C/[C@@H]3C[C@H](O)C[C@H]32)ccc1OCCS(=O)(=O)O [Compound 3DPQ-4]
Out: 48.54

* * *

Test system: MNU-induced breast cancer
Assay: In vivo anticancer screening, MNU-induced mammary tumorigenesis
Parameters: species or system female Wistar rats
Details: dose 50 mg/kg (compounds per os after MNU; MNU alone i.p.)
// reported Tumor Burden (week) for each item listed

Some molecules with recorded Tumor Burden (week):
1. CC/C(=C(\c1ccc(O)cc1)c1ccc(OCCN(C)C)cc1)c1ccccc1 [Compound 4-OHT., 4-hydroxytamoxifen, reference compound]
3.22 ± 0.21 *^,†,┴ week
2. CC(=O)c1cc(C(=O)O[C@@H]2/C=C/C(=O)O[C@@H](O)CCC/C=C/[C@@H]3C[C@H](O)C[C@H]32)ccc1OCCN1CC(C(=O)O)=CCC1=O
1.14 ± 0.65 *^,†,§,┴ week
3. O=C(c1ccc(OCCN2CCCCC2)cc1)c1c(-c2ccc(O)cc2)sc2cc(O)ccc12 [Ral., Raloxifene, reference compound]
2.91 ± 0.22 *^,†,§ week
4. CN(N=O)C(N)=O [MNU, Methyl nitrosourea, reference compound]
4.55 ± 0.15 *^,‡,§,‖,┴ week
5. CC(=O)c1cc(C(=O)OC2/C=C/C(=O)O[C@@H](O)CCC/C=C/[C@@H]3C[C@H](O)C[C@@H]23)ccc1OCCN1CCC=C(C(=O)O)C1 (stereo partly drawn)
1.16 ± 0.64 *^,†,§,┴ week

--- query ---
In: Requested read-out Tumor Burden (week), target or system MNU-induced breast cancer, entry CC(=O)c1cc(C(=O)O[C@@H]2/C=C/C(=O)O[C@@H](O)CCC/C=C/[C@@H]3C[C@H](O)C[C@H]32)ccc1OCCN1CCCC(O)C1=O (stereo partly drawn)
Out: 0.94 ± 0.35 *^,†,§,┴ week

* * *

Assay: Liver oxidative stress markers after treatment of MNU-induced rats
Type: in vivo, Wistar rats
Details: superoxide dismutase activity, liver, dose 5 mg/kg
SOD (U/mg) reference
Give just the numeric value; U/mg need not be written.

Some entries whose results are on file:
1) CNCCOc1ccc(C(=O)O[C@@H]2/C=C/C(=O)O[C@@H](O)CCC/C=C/[C@@H]3C[C@H](O)C[C@H]32)cc1C(C)=O
7.65
2) CC(=O)c1cc(C(=O)OC2/C=C/C(=O)O[C@@H](O)CCC/C=C/[C@@H]3C[C@H](O)C[C@@H]23)ccc1OCCN1CCC=C(C(=O)O)C1 (stereo partly shown)
7.32
3) CC(=O)c1cc(C(=O)O[C@@H]2/C=C/C(=O)O[C@@H](O)CCC/C=C/[C@@H]3C[C@H](O)C[C@H]32)ccc1OCCN(C)C
9.63
4) CC(=O)c1cc(C(=O)O[C@@H]2/C=C/C(=O)O[C@@H](O)CCC/C=C/[C@@H]3C[C@H](O)C[C@H]32)ccc1OCCN1CC(C(=O)O)=CCC1=O
7.74

In: Looking for the measured SOD (U/mg) of `CC(=O)c1cc(C(=O)O[C@@H]2/C=C/C(=O)O[C@@H](O)CCC/C=C/[C@@H]3C[C@H](O)C[C@H]32)ccc1OCCS(=O)(=O)O` , can you help?
Out: 8.73

In: Follow-up item: CC(=O)c1cc(C(=O)O[C@@H]2/C=C/C(=O)O[C@@H](O)CCC/C=C/[C@@H]3C[C@H](O)C[C@H]32)ccc1OCCN1CCCC(O)C1=O (stereo partly shown)
Out: 5.43

In: Repeat with CC/C(=C(\c1ccc(O)cc1)c1ccc(OCCN(C)C)cc1)c1ccccc1 [Compound 4-OHT., 4-hydroxytamoxifen, reference compound]
Out: 4.87
